These entries and their values trace back to paper PMC3695357.

Target Or Test System: BTK kinase (Homo sapiens)
Sequence (Q06187 whole entry): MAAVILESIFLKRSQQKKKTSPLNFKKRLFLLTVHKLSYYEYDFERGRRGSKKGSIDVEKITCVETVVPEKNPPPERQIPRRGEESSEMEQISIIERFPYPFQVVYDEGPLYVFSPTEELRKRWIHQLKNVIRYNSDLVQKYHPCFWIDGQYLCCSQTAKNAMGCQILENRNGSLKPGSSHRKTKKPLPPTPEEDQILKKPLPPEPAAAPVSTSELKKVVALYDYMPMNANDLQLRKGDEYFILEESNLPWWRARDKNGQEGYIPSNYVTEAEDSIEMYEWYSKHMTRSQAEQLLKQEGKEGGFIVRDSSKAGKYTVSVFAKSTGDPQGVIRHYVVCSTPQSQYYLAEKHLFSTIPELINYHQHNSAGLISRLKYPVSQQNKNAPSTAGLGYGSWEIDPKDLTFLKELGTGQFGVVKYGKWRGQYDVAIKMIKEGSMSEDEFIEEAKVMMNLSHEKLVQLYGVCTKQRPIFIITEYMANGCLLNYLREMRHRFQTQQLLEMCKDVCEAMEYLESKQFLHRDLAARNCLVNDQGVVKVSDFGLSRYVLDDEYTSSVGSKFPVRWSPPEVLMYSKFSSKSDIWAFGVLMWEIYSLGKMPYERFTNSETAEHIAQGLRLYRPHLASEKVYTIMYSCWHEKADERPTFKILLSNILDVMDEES
Method Summary: BTK ADP-Glo kinase selectivity assay, single concentration
Assay type: biochemical
Condition Notes: remaining kinase activity at 40 μM compound, 50 μM ATP
Some compounds, each annotated with its measured Activity Btk, %.

[
  {
    "Cpd Smiles": "O=C(NCc1ccc(Cn2ccnc2)cc1)c1ccc[nH]c1=S",
    "Activity Btk, % / %": 82
  },
  {
    "Cpd Smiles": "CCOc1ccc(NS(=O)(=O)c2ccc3[nH]c(=O)cc(C(=O)Nc4ccn(C)n4)c3c2)cc1",
    "Activity Btk, % / %": 81
  },
  {
    "Cpd Smiles": "COc1ccc(NC(=O)c2ccc3c(c2)OCCO3)cc1",
    "Activity Btk, % / %": 106
  },
  {
    "Cpd Smiles": "O=C(Nc1ccc2nccnc2c1)c1ccc2c(c1)OCCO2",
    "Activity Btk, % / %": 113
  },
  {
    "Cpd Smiles": "O=C(Nc1ccc2c(c1)OCO2)c1ccc2c(c1)OCCO2",
    "Activity Btk, % / %": 106
  },
  {
    "Cpd Smiles": "COc1cc(CNC(=O)c2ccc[nH]c2=S)ccc1OCc1ccncc1",
    "Activity Btk, % / %": 83
  },
  {
    "Cpd Smiles": "NS(=O)(=O)c1ccc(NNC(=O)c2ccc(NS(=O)(=O)c3cccs3)cc2)c([N+](=O)[O-])c1",
    "Activity Btk, % / %": 92
  },
  {
    "Cpd Smiles": "O=C(Nc1ccc2c(c1)OCCO2)c1ccc2c(c1)OCCO2",
    "Activity Btk, % / %": 98
  }
]

###

Target Or Test System: InsR kinase (Homo sapiens)
Construct: the amount of recombinant insulin receptor kinase was 2 ng per well
Sequence (P06213 28-1382): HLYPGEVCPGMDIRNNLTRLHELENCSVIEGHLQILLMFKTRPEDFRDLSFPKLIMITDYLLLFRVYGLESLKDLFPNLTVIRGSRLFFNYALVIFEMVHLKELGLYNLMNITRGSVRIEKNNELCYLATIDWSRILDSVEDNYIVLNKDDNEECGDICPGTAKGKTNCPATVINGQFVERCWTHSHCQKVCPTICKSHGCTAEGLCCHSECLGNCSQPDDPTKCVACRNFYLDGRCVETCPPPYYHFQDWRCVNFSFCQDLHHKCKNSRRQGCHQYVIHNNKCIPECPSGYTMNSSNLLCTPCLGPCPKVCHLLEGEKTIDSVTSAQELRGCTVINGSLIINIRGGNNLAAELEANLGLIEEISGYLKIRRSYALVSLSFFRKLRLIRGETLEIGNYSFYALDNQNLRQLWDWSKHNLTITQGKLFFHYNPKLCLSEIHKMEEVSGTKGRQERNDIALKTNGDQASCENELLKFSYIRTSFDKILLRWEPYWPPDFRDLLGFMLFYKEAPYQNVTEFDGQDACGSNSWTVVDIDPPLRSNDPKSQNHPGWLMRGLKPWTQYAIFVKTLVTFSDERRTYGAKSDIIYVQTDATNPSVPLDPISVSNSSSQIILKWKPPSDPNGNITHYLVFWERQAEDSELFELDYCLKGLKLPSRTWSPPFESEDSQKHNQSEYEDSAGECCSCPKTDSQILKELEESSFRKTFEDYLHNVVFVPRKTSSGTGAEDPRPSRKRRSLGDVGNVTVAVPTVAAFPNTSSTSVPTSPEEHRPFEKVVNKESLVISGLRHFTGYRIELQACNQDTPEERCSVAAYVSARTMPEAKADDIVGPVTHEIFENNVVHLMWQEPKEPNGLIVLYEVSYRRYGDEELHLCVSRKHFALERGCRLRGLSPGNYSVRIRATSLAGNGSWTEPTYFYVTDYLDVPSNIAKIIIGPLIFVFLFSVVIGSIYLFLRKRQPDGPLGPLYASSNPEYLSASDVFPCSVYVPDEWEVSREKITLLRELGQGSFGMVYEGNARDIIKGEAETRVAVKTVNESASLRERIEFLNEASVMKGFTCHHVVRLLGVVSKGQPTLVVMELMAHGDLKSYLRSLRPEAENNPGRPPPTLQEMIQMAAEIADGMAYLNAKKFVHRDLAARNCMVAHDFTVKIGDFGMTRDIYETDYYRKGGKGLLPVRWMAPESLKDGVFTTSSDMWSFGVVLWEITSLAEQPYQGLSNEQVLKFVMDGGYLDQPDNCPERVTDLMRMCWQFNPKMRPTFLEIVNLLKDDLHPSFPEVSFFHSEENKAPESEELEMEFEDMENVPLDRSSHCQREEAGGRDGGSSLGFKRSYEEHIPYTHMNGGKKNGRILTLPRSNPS
Method Summary: InsR ADP-Glo kinase assay, dose-response
Condition Notes: ADP-Glo, 8-point curves from 100 μM
// returns F unless IC50 is strictly below 30 µM, in which case T

[
  {
    "Cpd Smiles": "O=C(Nc1ccc2c(c1)OCCO2)c1ccc2c(c1)OCCO2",
    "Assigned Class": "T"
  },
  {
    "Cpd Smiles": "NS(=O)(=O)c1ccc(NNC(=O)c2ccc(NS(=O)(=O)c3cccs3)cc2)c([N+](=O)[O-])c1",
    "Assigned Class": "T"
  },
  {
    "Cpd Smiles": "O=C(Nc1ccc2c(c1)OCO2)c1ccc2c(c1)OCCO2",
    "Assigned Class": "F"
  },
  {
    "Cpd Smiles": "CCOc1ccc(NS(=O)(=O)c2ccc3[nH]c(=O)cc(C(=O)Nc4ccn(C)n4)c3c2)cc1",
    "Assigned Class": "T"
  },
  {
    "Cpd Smiles": "O=C(NCc1ccc(Cn2ccnc2)cc1)c1ccc[nH]c1=S",
    "Assigned Class": "T"
  },
  {
    "Cpd Smiles": "COc1ccc(NC(=O)c2ccc3c(c2)OCCO3)cc1",
    "Assigned Class": "T"
  }
]

###

Target Or Test System: IGF1R kinase (Homo sapiens)
Construct: This assay utilizes a recombinant intracellular kinase domain fragment of IGF1R
Sequence (P08069 999-1274 limits assumed): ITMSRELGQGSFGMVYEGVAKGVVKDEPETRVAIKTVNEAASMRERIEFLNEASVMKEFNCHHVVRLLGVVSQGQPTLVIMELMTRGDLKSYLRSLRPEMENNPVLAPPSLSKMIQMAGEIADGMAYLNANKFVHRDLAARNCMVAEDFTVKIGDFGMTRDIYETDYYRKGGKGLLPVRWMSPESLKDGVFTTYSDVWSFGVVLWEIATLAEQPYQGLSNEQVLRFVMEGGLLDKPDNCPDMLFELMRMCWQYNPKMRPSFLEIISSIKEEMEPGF
Method Summary: IGF1R ADP-Glo kinase assay, dose-response
Condition Notes: ADP-Glo, 8-point curves from 100 μM, 50 μM ATP
Quick reference: IC50 of the listed items.
Value Kind: IC50 (µM)

[
  {
    "Cpd Smiles": "O=C(NCc1ccc(Cn2ccnc2)cc1)c1ccc[nH]c1=S",
    "Target Or Test System": "IGF1R kinase (Homo sapiens)",
    "Measurement": 7
  },
  {
    "Cpd Smiles": "O=C(Nc1ccc2c(c1)OCCO2)c1ccc2c(c1)OCCO2",
    "Target Or Test System": "IGF1R kinase (Homo sapiens)",
    "Measurement": 18
  },
  {
    "Cpd Smiles": "COc1cc(CNC(=O)c2ccc[nH]c2=S)ccc1OCc1ccncc1",
    "Target Or Test System": "IGF1R kinase (Homo sapiens)",
    "Measurement": 18
  },
  {
    "Cpd Smiles": "O=C(Nc1ccc2nccnc2c1)c1ccc2c(c1)OCCO2",
    "Target Or Test System": "IGF1R kinase (Homo sapiens)",
    "Measurement": 25
  },
  {
    "Cpd Smiles": "O=C(Nc1ccc2c(c1)OCO2)c1ccc2c(c1)OCCO2",
    "Target Or Test System": "IGF1R kinase (Homo sapiens)",
    "Measurement": 25
  },
  {
    "Cpd Smiles": "COc1ccc(NC(=O)c2ccc3c(c2)OCCO3)cc1",
    "Target Or Test System": "IGF1R kinase (Homo sapiens)",
    "Measurement": 26
  }
]
